Below: a set of entries, each annotated with reported kcat.
- Substrate: CCCCCCCCCCCCCCCC/C=C\OC[C@@H](O)COP(=O)([O-])OCC[N+](C)(C)C
- assay protocol: released choline by choline oxidase/peroxidase colorimetric assay, Michaelis-Menten fit
- Format: biochemical, Thermocrispum sp. RD004668
- run parameters: pH 8.0, 50 °C, 1 min, 2 mM CaCl2, substrate micelles
Output spec: scalar in s⁻¹, unitless text.

{"protein": "LyPls-PLD (lysoplasmalogen-specific phospholipase D) (Thermocrispum sp. RD004668; N173A) (protein, recombinant from pET24/lpls-pld in E. coli BL21(DE3); purified on HisTrap HP) TTRTTDNPWLDARVLNMAHAGGENEAPANTLYAFKRAVKLGANMLELDVQSTKDDQLVVIHNATVDQTTDGTGKVRDLTFEQVHELDAAYNFIPGRHAVPGEPPESYPLRGVRTGEKKPPPGYQPSDFAIPKLADVLEAFPRTPIAIEIKGTSDADIPSFLHNAKLLARLLKKTGRTDFIVTSFNDLAVAKFHLLAPDIPIAPGMAGLAAYFLLGVKPMHGTVALQIPVRYQGLEIATPEFIRRAHADGYAVHVWFSGTAPDDEATYNRIIDSCADGLMPAYPALLERILDERGIERPGRPGVDPCG", "value units": "s⁻¹", "kcat": 42}

For LyPls-PLD (lysoplasmalogen-specific phospholipase D) (Thermocrispum sp. RD004668) (protein, recombinant from pET24/lpls-pld in E. coli BL21(DE3); purified on HisTrap HP) TTRTTDNPWLDARVLNMAHAGGENEAPANTLYAFKRAVKLGANMLELDVQSTKDDQLVVIHNATVDQTTDGTGKVRDLTFEQVHELDAAYNFIPGRHAVPGEPPESYPLRGVRTGEKKPPPGYQPSDFAIPKLADVLEAFPRTPINIEIKGTSDADIPSFLHNAKLLARLLKKTGRTDFIVTSFNDLAVAKFHLLAPDIPIAPGMAGLAAYFLLGVKPMHGTVALQIPVRYQGLEIATPEFIRRAHADGYAVHVWFSGTAPDDEATYNRIIDSCADGLMPAYPALLERILDERGIERPGRPGVDPCG the protein record lists kcat as 122
